Below: a set of entries, each annotated with reported glycan array binding signal (z-score).
Target Under Test: Gal6S(b1-4)GlcNAc6S
Experiment Description: glycan array binding signal (z-score within array); higher = stronger binding
Experimental Setup: glycan notation: IUPAC condensed, linker removed
This is one part of a sample in which the strongest signals are shown more often than they occur.

Solved entries (count: 2):
pTFF2 (Sus scrofa), P01359 (protein) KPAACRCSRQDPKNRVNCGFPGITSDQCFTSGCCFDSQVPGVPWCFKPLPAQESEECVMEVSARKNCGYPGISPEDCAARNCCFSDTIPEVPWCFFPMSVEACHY    0.285
LSECtin (Homo sapiens), Q6UXB4 (protein) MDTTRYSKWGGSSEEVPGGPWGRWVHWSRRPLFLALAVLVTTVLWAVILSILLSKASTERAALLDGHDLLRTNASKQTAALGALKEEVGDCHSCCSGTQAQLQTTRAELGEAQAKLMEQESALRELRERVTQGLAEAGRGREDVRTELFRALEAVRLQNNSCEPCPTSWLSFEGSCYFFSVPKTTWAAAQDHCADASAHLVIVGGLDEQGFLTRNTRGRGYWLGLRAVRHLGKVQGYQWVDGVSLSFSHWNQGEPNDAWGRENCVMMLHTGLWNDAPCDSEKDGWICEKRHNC    -0.109

Next:
# input binder: Sebin1 (Coprinopsis cinerea), A8PEE3 (protein) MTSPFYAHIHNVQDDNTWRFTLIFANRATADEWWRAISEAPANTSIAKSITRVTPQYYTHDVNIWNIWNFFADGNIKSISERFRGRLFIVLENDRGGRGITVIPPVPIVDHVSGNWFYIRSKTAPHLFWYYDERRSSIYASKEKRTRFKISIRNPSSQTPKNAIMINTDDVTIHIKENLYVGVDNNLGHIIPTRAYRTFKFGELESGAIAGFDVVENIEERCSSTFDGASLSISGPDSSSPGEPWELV ; wanted: its glycan array binding signal (z-score)
0.222

Ref: the supplement of paper PMC8728848
